- Tested on: NK92^CIRB21 cells
- test.method.notes: Growth of NK92^CIRB21 cells in the presence of lactate dehydrogenase inhibitor R-GNE140 (cell count)
- Type: cell-based, human
- assay.context: total cell count, FIG. 11, read-out: IC50 of R-GNE140 for inhibiting growth of NK92^CIRB21 cells
measurement.name: pIC50
pIC50 is defined as minus the log10 of a concentration measured in mol/L.

I have this compound here, `O=C1N[C@](c2ccc(N3CCOCC3)cc2)(c2ccsc2)CC(O)=C1Sc1ccccc1Cl` , and I need its recorded pIC50.
4.98

Each recorded value in this set is attributed to patent US20240207405A1.
